Test: Biodistribution study with lead-212
Assay type: in vivo, mouse
Details: mouse, lungs, intravenous, 100 kBq, 4 h p.i.; n = 4; read-out: Lungs uptake
Description: Six-week-old male Balb/c nu/nu-specific and opportunistic pathogen-tree (SOPF) mice (Janvier Labs, Le Genest-Saint-Isle, France) were housed in individually ventilated cages, with four mice per cage. […] Biodistribution studies were performed to determine tumor and organ uptake of [^212Pb]Pb-DOTAM-TATE, [^212Pb]Pb-eSOMA-01, and [^212Pb]Pb-eSOMA-02. […] To determine the total injected radioactivity per animal, a calibration curve with lead-212 was established using the gamma counter. […]
Observed Property: tissue uptake at 4 h (%ID/g)
Field format: number, assumed %ID/g, no unit text.

# Compound, tissue uptake at 4 h (%ID/g)
rows = [
    ("C[C@@H](O)[C@H](NC(=O)[C@@H]1CSSC[C@H](NC(=O)[C@@H](Cc2ccccc2)NC(=O)CN2CCN(CC(N)=O)CCN(CC(N)=O)CCN(CC(N)=O)CC2)C(=O)N[C@@H](Cc2ccc(O)cc2)C(=O)N[C@H](Cc2c[nH]c3ccccc23)C(=O)N[C@@H](CCCCN)C(=O)N[C@@H]([C@@H](C)O)C(=O)N1)C(=O)O [[^212Pb]Pb-DOTAM-TATE, metal not drawn, reference compound]", 0.82),
    ("C[C@@H](O)[C@H](NC(=O)[C@@H]1CSSC[C@H](NC(=O)[C@@H](Cc2ccccc2)NC(=O)[C@H]2CC[C@H](CNC(=O)CN3CCN(CC(N)=O)CCN(CC(N)=O)CCN(CC(N)=O)CC3)CC2)C(=O)N[C@@H](Cc2ccc(O)cc2)C(=O)N[C@H](Cc2c[nH]c3ccccc23)C(=O)N[C@@H](CCCCN)C(=O)N[C@@H]([C@@H](C)O)C(=O)N1)C(=O)O [[^212Pb]Pb-eSOMA-01, metal not drawn]", 1.38),
]

Consider now this further compound.
For record C[C@@H](O)[C@H](NC(=O)[C@@H]1CSSC[C@H](NC(=O)[C@@H](Cc2ccccc2)NC(=O)CN2CCC(NC(=O)CN3CCN(CC(N)=O)CCN(CC(N)=O)CCN(CC(N)=O)CC3)CC2)C(=O)N[C@@H](Cc2ccc(O)cc2)C(=O)N[C@H](Cc2c[nH]c3ccccc23)C(=O)N[C@@H](CCCCN)C(=O)N[C@@H]([C@@H](C)O)C(=O)N1)C(=O)O [[^212Pb]Pb-eSOMA-02, metal not drawn] the listed tissue uptake at 4 h is 0.99

###

test: Biodistribution study with lead-212; type: in vivo, mouse; details: mouse, tumor, intravenous, 100 kBq, 24 h p.i.; n = 4; read-out: Tumor uptake
Observed Property: tissue uptake at 24 h (%ID/g)
Field format: number, assumed %ID/g, no unit text.

Past entries and their recorded results:
# Molecule, tissue uptake at 24 h / %ID/g
records = [
    ("C[C@@H](O)[C@H](NC(=O)[C@@H]1CSSC[C@H](NC(=O)[C@@H](Cc2ccccc2)NC(=O)[C@H]2CC[C@H](CNC(=O)CN3CCN(CC(N)=O)CCN(CC(N)=O)CCN(CC(N)=O)CC3)CC2)C(=O)N[C@@H](Cc2ccc(O)cc2)C(=O)N[C@H](Cc2c[nH]c3ccccc23)C(=O)N[C@@H](CCCCN)C(=O)N[C@@H]([C@@H](C)O)C(=O)N1)C(=O)O [[^212Pb]Pb-eSOMA-01, metal not drawn]", 6.83),
    ("C[C@@H](O)[C@H](NC(=O)[C@@H]1CSSC[C@H](NC(=O)[C@@H](Cc2ccccc2)NC(=O)CN2CCN(CC(N)=O)CCN(CC(N)=O)CCN(CC(N)=O)CC2)C(=O)N[C@@H](Cc2ccc(O)cc2)C(=O)N[C@H](Cc2c[nH]c3ccccc23)C(=O)N[C@@H](CCCCN)C(=O)N[C@@H]([C@@H](C)O)C(=O)N1)C(=O)O [[^212Pb]Pb-DOTAM-TATE, metal not drawn, reference compound]", 6.07),
]

Consider now this further molecule.
For record C[C@@H](O)[C@H](NC(=O)[C@@H]1CSSC[C@H](NC(=O)[C@@H](Cc2ccccc2)NC(=O)CN2CCC(NC(=O)CN3CCN(CC(N)=O)CCN(CC(N)=O)CCN(CC(N)=O)CC3)CC2)C(=O)N[C@@H](Cc2ccc(O)cc2)C(=O)N[C@H](Cc2c[nH]c3ccccc23)C(=O)N[C@@H](CCCCN)C(=O)N[C@@H]([C@@H](C)O)C(=O)N1)C(=O)O [[^212Pb]Pb-eSOMA-02, metal not drawn] the listed tissue uptake at 24 h is 1.02

Where do these numbers come from? They come from paper PMC10384862.
